- System: Pseudomonas aeruginosa
- test: microbe, parasite or virus in culture
- particulars: 2779-con
- Description: Antimicrobial activity against Pseudomonas aeruginosa 2779-con by Etest
outcome_measure: MIC (µg/mL)
Answers are plain numbers, in µg/mL.

molecule	system_under_test	outcome_measure	unit_abbreviation	measured_result
NC[C@H]1O[C@H](O[C@H]2[C@H](O)[C@@H](O[C@H]3O[C@H](CO)[C@@H](O)[C@H](N)[C@H]3O)[C@H](N)C[C@@H]2N)[C@H](N)C[C@@H]1O [TOBRAMYCIN]	Pseudomonas aeruginosa	MIC	µg/mL	1
C[C@@H](O)[C@H]1C(=O)N2C(C(=O)O)=C(SCCNC=N)C[C@H]12 [IMIPENEM ANHYDROUS]	Pseudomonas aeruginosa	MIC	µg/mL	2
CC(C)(O/N=C(\C(=O)N[C@@H]1C(=O)N2C(C(=O)[O-])=C(C[n+]3ccccc3)CS[C@H]12)c1csc(N)n1)C(=O)O [CEFTAZIDIME]	Pseudomonas aeruginosa	MIC	µg/mL	32

Continue with the next molecule.
Entry NCC[C@H](O)C(=O)N[C@@H]1C[C@H](N)[C@@H](O[C@H]2O[C@H](CN)[C@@H](O)[C@H](O)[C@H]2O)[C@H](O)[C@H]1O[C@H]1O[C@H](CO)[C@@H](O)[C@H](N)[C@H]1O [AMIKACIN] , MIC reported as 1
